Consider the following molecules; for each one, report its pKi.
- ASSAYED SYSTEM: sigma sites labeled by 4-[125I]PEMP in guinea pig brain membranes
- MEASUREMENT CONDITIONS: read-out: Ki against 4-[125I]PEMP
Give bare numbers, as −log10 of the molar value.

{"MOLECULE": "CN(CCc1ccc(Cl)c(Cl)c1)CCN1CCCC1", "MEASURED ATTRIBUTE": "pKi", "QUANTITATIVE READOUT": 8.25}

pKi reported for this molecule CC(C)=CCN1CCC2(C)c3cc(O)ccc3CC1C2C (single isomer, unassigned; (+)) [(+)-Pentazocine] : 7.44
